- Target Or Test System: Tyrosine-protein kinase Yes (Homo sapiens) (UniProt P07947)
- Sequence (P07947 2-543 limits assumed): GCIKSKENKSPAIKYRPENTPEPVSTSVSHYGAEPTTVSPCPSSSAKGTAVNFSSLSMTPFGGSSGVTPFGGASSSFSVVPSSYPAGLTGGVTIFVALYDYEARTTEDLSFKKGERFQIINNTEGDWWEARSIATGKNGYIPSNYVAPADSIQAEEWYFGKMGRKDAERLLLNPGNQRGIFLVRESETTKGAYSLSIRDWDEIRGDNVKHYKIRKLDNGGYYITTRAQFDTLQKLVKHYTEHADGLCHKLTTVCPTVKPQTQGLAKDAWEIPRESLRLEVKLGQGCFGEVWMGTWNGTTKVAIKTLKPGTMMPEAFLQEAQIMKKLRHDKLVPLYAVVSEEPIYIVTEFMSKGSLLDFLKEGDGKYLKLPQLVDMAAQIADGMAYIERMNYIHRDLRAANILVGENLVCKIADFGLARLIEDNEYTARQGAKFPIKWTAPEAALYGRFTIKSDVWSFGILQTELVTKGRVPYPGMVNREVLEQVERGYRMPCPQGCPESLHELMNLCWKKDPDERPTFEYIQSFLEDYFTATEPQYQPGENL
- Experimental Setup: at 10 µM
Quantity Kind: residual activity (%)
The response must be a number in % with no trailing unit.

Looking for the measured residual activity of "Oc1ccc(Nc2nc(-c3ccc(Cl)cc3)cs2)cc1" , can you help? 92

Please give the result for "CC(C)n1cnc2c(NCc3ccccc3)nc(NCCCO)nc21" too. 88

Please give the result for "COc1ccc(C(=O)Nc2sc3c(c2C(N)=O)CCCC3)cc1OC" too. 90

Please give the result for "CO[C@H]1[C@@H](OC)C[C@H](C)[C@@H](OC)C2=CC(=O)C=C(NC(=O)/C(C)=C/C=C/[C@H](OC)[C@@H](OC(N)=O)/C(C)=C/[C@@H]1C)C2=O" too. 90

Please give the result for "COc1ccc(CNc2nc(N(CCO)CCO)nc3c2ncn3C(C)C)cc1" too. 89

Please give the result for "O=C1NC(=O)c2c1c1c3ccccc3[nH]c1c1[nH]c3cc(Br)ccc3c21" too. 88

Please give the result for "Nc1n[nH]c2nnc(-c3c(-c4ccccc4)nn4ccccc34)cc12" too. 33

Please give the result for "O=C1NC(=O)/C(=C\c2ccc3nccnc3c2)S1" too. 102

Please give the result for "Nc1nc(Nc2ccc(S(N)(=O)=O)cc2)nn1C(=S)Nc1c(F)cccc1F" too. 2

Please give the result for "Oc1ccc(-c2nc(-c3ccc(F)cc3)c(-c3ccncc3)[nH]2)cc1" too. 34
